- assayed-target: Bromodomain-containing protein 4 (Homo sapiens)
- experiment-description: Inhibition of biotinylated H4 K5,8,12,16Ac peptide binding to GST-tagged BRD4 bromodomain2 (unknown origin) at 100 uM measured after 60 mins by AlphaScreen assay relative to control

compound	assayed-target	inhibition, %
Cc1noc(C)c1Cn1c(=O)nc(-c2ccc(Cl)c(Cl)c2)c2c3c(sc21)CC(C(C)(C)C)CC3 (stereo unspecified)	Bromodomain-containing protein 4 (Homo sapiens)	29.9
CC(=O)C(C)n1c(=O)nc(-c2ccccc2)c2c3c(sc21)CCCC3 (stereo unspecified)	Bromodomain-containing protein 4 (Homo sapiens)	13.6
Cc1noc(C)c1Cn1c(=O)nc(-c2ccccc2)c2c3c(sc21)CCC3	Bromodomain-containing protein 4 (Homo sapiens)	19.8
COC(=O)C1CCc2c(sc3c2c(-c2ccccc2)nc(=O)n3Cc2c(C)noc2C)C1 (stereo unspecified)	Bromodomain-containing protein 4 (Homo sapiens)	9
Cc1noc(C)c1Cn1c(=O)nc(-c2ccc(Cl)cc2)c2c3c(sc21)CC(c1ccccc1)CC3 (stereo unspecified)	Bromodomain-containing protein 4 (Homo sapiens)	15.1
Cc1noc(C)c1Cn1c(=O)nc(-c2ccc(F)cc2)c2c3c(sc21)CC(C(C)(C)C)CC3 (stereo unspecified)	Bromodomain-containing protein 4 (Homo sapiens)	33.2
Cc1noc(C)c1Cn1c(=O)nc(-c2ccccc2Cl)c2c3c(sc21)CC(C(C)(C)C)CC3 (stereo unspecified)	Bromodomain-containing protein 4 (Homo sapiens)	39.5
Cc1noc(C)c1Cn1c(=O)nc(-c2cccc(Cl)c2)c2c3c(sc21)CC(C(C)(C)C)CC3 (stereo unspecified)	Bromodomain-containing protein 4 (Homo sapiens)	52.3
Cn1c(=O)nc(-c2ccccc2)c2c3c(sc21)CCCC3	Bromodomain-containing protein 4 (Homo sapiens)	66.2
CC(C)(C)C1CCc2c(sc3c2c(-c2ccccc2)nc(=O)n3Cc2cnc(Cl)s2)C1 (stereo unspecified)	Bromodomain-containing protein 4 (Homo sapiens)	28.3
COc1ccc(-c2nc(=O)n(Cc3cnc(Cl)s3)c3sc4c(c23)CCC(C(C)(C)C)C4)cc1 (stereo unspecified)	Bromodomain-containing protein 4 (Homo sapiens)	57.2
Cc1noc(C)c1COc1nc(-c2ccc(Cl)c(Cl)c2)c2c3c(sc2n1)CC(C(C)(C)C)CC3 (stereo unspecified)	Bromodomain-containing protein 4 (Homo sapiens)	9.3
Cc1noc(C)c1Cn1c(=O)nc(-c2ccccc2)c2c3c(sc21)CC(C)(C)CC3	Bromodomain-containing protein 4 (Homo sapiens)	44.9
COc1ccc(-c2nc(=O)n(Cc3c(C)noc3C)c3sc4c(c23)CCN(C(C)C)C4)cc1	Bromodomain-containing protein 4 (Homo sapiens)	66.6
Cc1noc(C)c1Cn1c(=O)nc(-c2ccccc2)c2c3c(sc21)CCCC3	Bromodomain-containing protein 4 (Homo sapiens)	26.2
Cc1noc(C)c1Cn1c(=O)nc(-c2ccccc2)c2c3c(sc21)CCCCC3	Bromodomain-containing protein 4 (Homo sapiens)	81.2
